Experiment: Stability of peptides in simulated gastric fluid (pH 1.5; HCl, NaCl and Pepsin)
Type: in vitro ADME
Settings: simulated gi fluid, pH 1.5
Where a SMILES comes first, the peptide text is derived from it. [ ]: non-standard residue; d: D form. ξ: configuration not given here. ξαMePhe(2,6-F2) = CC(N)(Cc1c(F)cccc1F)C(=O)O; ξαMePhe(2-F) = CC(N)(Cc1ccccc1F)C(=O)O; hArg = N=C(N)NCCCC[C@H](N)C(=O)O; ξαMeF = CC(N)(Cc1ccccc1)C(=O)O; Nle = CCCC[C@H](N)C(=O)O; Ac3c = NC1(C(=O)O)CC1; Aib = CC(C)(N)C(=O)O
# half-life annotations
Output spec: scalar in h, unitless text.

CC[C@H](C)[C@H](NC(=O)[C@H](CCC(=O)O)NC(=O)C(C)(C)NC(=O)[C@@H](NC(=O)C1(N)CC1)C(C)C)C(=O)N[C@@H](CCC(N)=O)C(=O)N[C@@H](CC(C)C)C(=O)N[C@@H](CCSC)C(=O)N[C@@H](Cc1c[nH]cn1)C(=O)N[C@@H](CCC(N)=O)C(=O)N[C@@H](CCCCNC(=N)N)C(=O)NC(C)(C)C(=O)N[C@@H](CCCCN)C(=O)NC(C)(Cc1ccccc1)C(N)=O (some centres unmarked) [Seq. ID. 14] (H-[Ac3c]V[Aib]EIQLMHQ[hArg][Aib]K[ξαMeF]-NH2) = 7

For the next question, use this compound.
stdin: May I ask what half-life has been recorded for CCCC[C@H](NC(=O)C(C)(Cc1ccccc1F)NC(=O)[C@H](CCC(N)=O)NC(=O)[C@@H](NC(=O)[C@H](CCC(=O)O)NC(=O)C(C)(C)NC(=O)[C@@H](NC(=O)C1(N)CC1)C(C)C)[C@@H](C)CC)C(=O)N[C@@H](Cc1c[nH]cn1)C(=O)N[C@@H](CCC(N)=O)C(=O)N[C@@H](CCCCNC(=N)N)C(=O)NC(C)(C)C(=O)N[C@@H](CCCCN)C(=O)NC(C)(Cc1c(F)cccc1F)C(N)=O (some centres unmarked) [Seq. ID. 95] (H-[Ac3c]V[Aib]EIQ[ξαMePhe(2-F)][Nle]HQ[hArg][Aib]K[ξαMePhe(2,6-F2)]-NH2) ?
stdout: 0.5
